Biological target: full-length human RORγt (Homo sapiens)
Construct: expressed in transfected cells; host or cells: HEK293T, transiently transfected with pCMV-BD-ROR
Sequence (P51449 1-497 isoform P51449-2): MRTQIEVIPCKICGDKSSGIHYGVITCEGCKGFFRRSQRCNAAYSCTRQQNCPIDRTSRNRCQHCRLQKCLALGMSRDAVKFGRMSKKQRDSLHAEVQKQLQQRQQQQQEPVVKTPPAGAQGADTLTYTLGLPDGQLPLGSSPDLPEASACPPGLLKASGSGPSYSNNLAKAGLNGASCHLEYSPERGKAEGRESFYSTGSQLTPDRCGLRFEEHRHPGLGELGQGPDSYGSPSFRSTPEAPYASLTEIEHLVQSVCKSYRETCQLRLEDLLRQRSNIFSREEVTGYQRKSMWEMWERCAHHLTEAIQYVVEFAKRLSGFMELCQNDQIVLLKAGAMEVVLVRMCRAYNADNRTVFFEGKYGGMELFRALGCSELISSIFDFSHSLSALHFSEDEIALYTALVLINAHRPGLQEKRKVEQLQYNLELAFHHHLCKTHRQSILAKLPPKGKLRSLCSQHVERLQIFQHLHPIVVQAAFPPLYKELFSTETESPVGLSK
Experiment: RORγt (full-length human) Reporter Assay, Conditions A
Format: cell-based
Details: read-out: RORγt (FL) Reporter Assay A, % inhibition @ 6 μM; 6 μM compound
property: inhibition at 6 µM (%)
A number alone suffices; assume %.

QUERY: Dear colleague, I am looking for the recorded inhibition at 6 µM of the following molecule: CC[C@H](NS(=O)(=O)c1ccc(-c2sc(-c3noc(CC(C)(C)C(=O)O)n3)nc2C(=O)N2CCC(F)(F)CC2)c(C(F)F)c1Cl)C(F)(F)F [Example 10/1]
RESULT: 104

QUERY: Dear colleague, I am looking for the recorded inhibition at 6 µM of the following molecule: CN(CC(F)(F)F)S(=O)(=O)c1ccc(-c2sc(-c3nnc(C(C)(C)O)o3)nc2C(=O)N2CCC(F)(F)CC2)c(Cl)c1F [Example 6/23]
RESULT: 40

# credit: patent US9845319B2
